System: normal NK cells expanded with K562-aAPC
experiment: percent inhibition of viability; higher = more inhibition
experimental.parameters: 72 h; IL-2 2.5 ng/mL; 10000 nM
metric: percent inhibition of viability (%)
Numbers only, in %.

• O=c1[nH]c(=O)n([C@H]2C[C@H](O)[C@@H](CO)O2)cc1F [Floxuridine] (max concentration tested 10000 nM) = 43.4
• C[C@@H]1C[C@H]2O[C@@H]2/C=C\C=C\C(=O)Cc2c(Cl)c(O)cc(O)c2C(=O)O1 [Radicicol] (max concentration tested 10000 nM) = 80.6
• CC(=O)NCC(=O)N1[C@@H]2CC[C@H]1c1ccc(Nc3ncc(C(F)(F)F)c(NC4CCC4)n3)cc12 (max concentration tested 10000 nM) = 101
• Cn1cc(C2=Nc3cc(NC(=O)C(N)C4CCCCC4)cc4c3C2=CNNC4=O)cn1 (stereo unspecified) (max concentration tested 10000 nM) = 73.3
• Cc1cc(C(=O)NOCCO)c(Nc2ccc(I)cc2F)n(C)c1=O [AZD-8330] (max concentration tested 10000 nM) = 5.67

Now examine the next entry.
I would be grateful if you could share the reported percent inhibition of viability for CCn1c(-c2nonc2N)nc2c(C#CC(C)(C)O)ncc(OC[C@H]3CCCNC3)c21 (max concentration tested 10000 nM) . 20.1
